target: IRAK1 (Homo sapiens); assay: RBC HotSpot Kinase Assay, IRAK1; settings: isolated kinase, 33P-ATP
Sequence (P51617 whole entry): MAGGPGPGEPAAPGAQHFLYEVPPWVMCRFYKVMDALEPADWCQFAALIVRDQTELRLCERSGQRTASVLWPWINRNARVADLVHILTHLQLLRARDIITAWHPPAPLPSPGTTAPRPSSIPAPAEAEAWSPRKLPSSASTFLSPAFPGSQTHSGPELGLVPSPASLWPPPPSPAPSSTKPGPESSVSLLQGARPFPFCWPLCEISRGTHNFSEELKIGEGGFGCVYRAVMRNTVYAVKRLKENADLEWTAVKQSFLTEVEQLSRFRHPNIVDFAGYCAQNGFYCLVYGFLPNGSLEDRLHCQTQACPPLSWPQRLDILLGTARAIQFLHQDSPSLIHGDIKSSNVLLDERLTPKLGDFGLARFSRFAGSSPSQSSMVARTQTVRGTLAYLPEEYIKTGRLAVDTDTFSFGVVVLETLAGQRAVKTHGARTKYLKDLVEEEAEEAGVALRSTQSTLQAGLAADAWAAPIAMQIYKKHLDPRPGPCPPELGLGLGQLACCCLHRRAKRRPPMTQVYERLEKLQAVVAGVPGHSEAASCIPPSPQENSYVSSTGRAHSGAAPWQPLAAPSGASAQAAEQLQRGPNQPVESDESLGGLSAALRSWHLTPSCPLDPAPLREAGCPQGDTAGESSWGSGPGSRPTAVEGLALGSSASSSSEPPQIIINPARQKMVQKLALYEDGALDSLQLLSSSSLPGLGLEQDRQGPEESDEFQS
pIC50: −log10 of the molar value.
Rule: pIC50 under 6 gives n, otherwise y.

INSERT INTO assay_data (smiles, label_class) VALUES
  ('FC(F)c1cn2c(-c3cccc(N[C@@H]4CCCNC4)n3)cnc2cn1', 'y');

For this molecule, is measured pIC50 6 or higher? "O=C1NCCN1c1cn2c(-c3cccc(N[C@H]4CNCC[C@@H]4F)n3)cnc2cn1"
y

For this molecule, is measured pIC50 6 or higher? "O=S1(=O)CCCN1c1cn2c(-c3cccc(N[C@H]4CNC[C@@H]4F)n3)cnc2cn1"
y

For this molecule, is measured pIC50 6 or higher? "CC(C)(O)c1cn2c(-c3cccc(N[C@@H]4CCCNC4)n3)cnc2cn1"
y

For this molecule, is measured pIC50 6 or higher? "C[C@H]1C[C@@H](Nc2cccc(-c3cnc4cnc(C5(C)CC5)cn34)n2)CCN1"
n

###

target: UniProt P36888; assay: RBC HotSpot Kinase Assay, FLT3; type: biochemical; design: purchased Reaction Biology (RBC), HotSpot kinase assay; settings: isolated kinase, 33P-ATP
Sequence (P36888 27-993): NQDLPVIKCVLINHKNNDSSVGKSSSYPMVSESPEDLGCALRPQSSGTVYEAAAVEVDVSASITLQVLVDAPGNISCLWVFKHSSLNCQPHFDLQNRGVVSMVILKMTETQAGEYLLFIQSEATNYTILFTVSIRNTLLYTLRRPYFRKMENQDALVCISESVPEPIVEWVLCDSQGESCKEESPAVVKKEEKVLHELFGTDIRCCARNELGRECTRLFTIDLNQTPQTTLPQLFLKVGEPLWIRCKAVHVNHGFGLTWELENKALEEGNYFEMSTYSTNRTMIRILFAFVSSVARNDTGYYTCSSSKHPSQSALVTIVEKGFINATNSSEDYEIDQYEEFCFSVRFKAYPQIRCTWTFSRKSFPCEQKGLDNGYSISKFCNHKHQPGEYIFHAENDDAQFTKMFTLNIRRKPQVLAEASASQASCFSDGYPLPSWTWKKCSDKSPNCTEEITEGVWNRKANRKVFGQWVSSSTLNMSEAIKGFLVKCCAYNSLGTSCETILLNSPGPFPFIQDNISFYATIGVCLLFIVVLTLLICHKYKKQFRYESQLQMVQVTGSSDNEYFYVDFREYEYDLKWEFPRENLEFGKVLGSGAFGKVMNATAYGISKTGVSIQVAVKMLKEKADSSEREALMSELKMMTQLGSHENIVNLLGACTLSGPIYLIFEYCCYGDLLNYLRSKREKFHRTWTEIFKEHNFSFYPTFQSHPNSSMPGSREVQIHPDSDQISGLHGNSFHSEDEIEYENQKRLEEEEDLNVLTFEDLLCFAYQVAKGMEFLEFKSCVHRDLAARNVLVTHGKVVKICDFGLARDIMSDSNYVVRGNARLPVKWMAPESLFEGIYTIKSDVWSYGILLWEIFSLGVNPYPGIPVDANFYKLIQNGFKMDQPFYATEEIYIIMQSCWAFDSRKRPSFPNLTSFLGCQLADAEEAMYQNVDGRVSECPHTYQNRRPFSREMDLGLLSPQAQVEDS
pIC50: −log10 of the molar value.
Outcome Measure: pIC50

The cases that follow already have their pIC50 on record.
INSERT INTO measurements (compound, result) VALUES
  ('O=S1(=O)CCCN1c1cn2c(-c3cccc(N[C@H]4CNC[C@@H]4F)n3)cnc2cn1 [Compound 95]', '> 9.30'),
  ('FC(F)(F)COc1cn2c(-c3cccc(N[C@H]4CNC[C@@H]4C(F)(F)F)n3)cnc2cn1 [Compound 39]', '> 9.30'),
  ('O=S1(=O)CCCN1c1cn2c(-c3cccc(N[C@H]4CNCC[C@@H]4F)n3)cnc2cn1 [Compound 97]', 9.22);

Look up pIC50 for this compound: CC(O)(c1cn2c(-c3cc(F)cc(N[C@@H]4CCCNC4)n3)cnc2cn1)C(F)(F)F (single isomer, unassigned) [Compound 87]
9.15

Look up pIC50 for this compound: C[C@H]1CNC[C@@H]1Nc1cccc(-c2cnc3cnccn23)n1 [Compound 73]
> 9.30

Look up pIC50 for this compound: CC(C)Oc1cn2c(-c3cccc(N[C@H]4CNCC[C@@H]4F)n3)cnc2cn1 [compound 132]
> 9.30

Look up pIC50 for this compound: Cn1cc(-c2cn3c(-c4cccc(N[C@H]5CNC[C@@H]5F)n4)cnc3cn2)cn1 [Compound 52]
> 9.30

Look up pIC50 for this compound: O=C1CCCN1c1cn2c(-c3nc(N[C@H]4CNCC[C@@H]4F)c(F)cc3F)cnc2cn1 [Compound 107]
9.00

Look up pIC50 for this compound: CC(O)(c1cn2c(-c3cc(F)cc(N[C@H]4CNC[C@@H]4F)n3)cnc2cn1)C(F)(F)F (single isomer, unassigned) [Compound 84]
9.22

Look up pIC50 for this compound: O=S1(=O)CCCN1c1cn2c(-c3nc(N[C@@H]4CCCNC4)c(F)cc3F)cnc2cn1 [Compound 104]
> 9.30

Look up pIC50 for this compound: COc1cn2c(-c3cccc(N[C@H]4CNC[C@@H]4F)n3)cnc2cn1 [Compound 56]
9.15
